- Measurement description: Plasma stability study, rat plasma
- Type: in vitro ADME
- Assay conditions: Rat plasma, 1 μM, 37° C.
Where a SMILES comes first, the peptide text is derived from it. [ ]: non-standard residue; d: D form. The star is where a group is joined. pY = N[CH](Cc1ccc(OP(=O)(O)O)cc1)C(=O)O; Hexanoyl = CCCCCC(=O)*; Ahx = NCCCCCC(=O)O
As shown below, each of these compounds has a reported Plasma Stability Half-Life value.
Parameter measured: Plasma Stability Half-Life (h)

compound="CCCCCC(=O)N[C@@H](Cc1ccc(O)cc1)C(=O)N[C@H](C(=O)NCCCCCC(N)=O)[C@@H](C)CC [Base Structure, reference compound] (Hexanoyl-Tyr-Ile-[Ahx]-NH2)" parameter_measured="Plasma Stability Half-Life" measured_result=18.252
compound="CCCCCC(=O)NC(Cc1ccc(OC(=O)NCCN(C)C)cc1)C(=O)NC(C(=O)NCCCCCC(N)=O)C(C)CC (stereo not shown)" parameter_measured="Plasma Stability Half-Life" measured_result=1.16
compound="CCCCCC(=O)NC(Cc1ccc(OP(=O)([O-])O)cc1)C(=O)NC(C(=O)NCCCCCC(N)=O)C(C)CC.[Na+] (stereo not shown) [Compound A30] (Hexanoyl-[pY]-Ile-[Ahx]-NH2; configuration not given here)" parameter_measured="Plasma Stability Half-Life" measured_result=21.79
compound="CCCCCC(=O)NC(Cc1ccc(OC(=O)N2CCN(C)CC2)cc1)C(=O)NC(C(=O)NCCCCCC(N)=O)C(C)CC (stereo not shown)" parameter_measured="Plasma Stability Half-Life" measured_result=2.617

---

- Measurement description: Plasma stability study, rat plasma
- Assay type: in vitro ADME
- Assay conditions: rat, plasma
Where a SMILES comes first, the peptide text is derived from it. [ ]: non-standard residue; d: D form. The star is where a group is joined. Hexanoyl = CCCCCC(=O)*; Ahx = NCCCCCC(=O)O
Parameter measured: Plasma Stability Half-Life (min)

compound="CCCCCC(=O)NC(Cc1ccc(OC(=O)CN2CCOCC2)cc1)C(=O)NC(C(=O)NCCCCCC(N)=O)C(C)CC (centres unmarked) [Compound A23]" parameter_measured="Plasma Stability Half-Life" measured_result=8.2
compound="CCCCCC(=O)NC(Cc1ccc(OC(=O)C(N)C(C)C)cc1)C(=O)NC(C(=O)NCCCCCC(N)=O)C(C)CC (centres unmarked) [Compound A27] (Hexanoyl-Tyr(Val)-Ile-[Ahx]-NH2; configuration not given here)" parameter_measured="Plasma Stability Half-Life" measured_result=31.9
compound="CCCCCC(=O)NC(Cc1ccc(OC(=O)CN2CCCC2)cc1)C(=O)NC(C(=O)NCCCCCC(N)=O)C(C)CC (centres unmarked) [Compound A24]" parameter_measured="Plasma Stability Half-Life" measured_result=64.2
compound="CCCCCC(=O)NC(Cc1ccc(OC(=O)CN2CCN(C)CC2)cc1)C(=O)NC(C(=O)NCCCCCC(N)=O)C(C)CC (centres unmarked) [Compound A22]" parameter_measured="Plasma Stability Half-Life" measured_result=8.7
compound="CCCCCC(=O)NC(Cc1ccc(OC(=O)CN(C)C)cc1)C(=O)NC(C(=O)NCCCCCC(N)=O)C(C)CC (centres unmarked) [Compound A25]" parameter_measured="Plasma Stability Half-Life" measured_result=8.2

---

- Measurement description: Metabolic stability in simulated intestinal fluid (SIF), pH 6.8, with or without pancreatin
- Format: in vitro ADME
- Assay conditions: −Pancreatin, 5 μM, 37° C.
Where a SMILES comes first, the peptide text is derived from it. [ ]: non-standard residue; d: D form. The star is where a group is joined. pY = N[CH](Cc1ccc(OP(=O)(O)O)cc1)C(=O)O; Hexanoyl = CCCCCC(=O)*; Ahx = NCCCCCC(=O)O
As shown below, each of these compounds has a reported SIF Stability (pH 6.8) Half-Life (min) value.
Parameter measured: SIF Stability (pH 6.8) Half-Life (min)

compound="CCCCCC(=O)NC(Cc1ccc(OP(=O)(OCCN(C)C)OCCN(C)C)cc1)C(=O)NC(C(=O)NCCCCCC(N)=O)C(C)CC (centres unmarked)" unit_text=min measured_result=30.2
compound="CCCCCC(=O)NC(Cc1ccc(OC(=O)N2CCN(C)CC2)cc1)C(=O)NC(C(=O)NCCCCCC(N)=O)C(C)CC (centres unmarked)" unit_text=min measured_result=95.4
compound="CCCCCC(=O)NC(Cc1ccc(OP(=O)([O-])O)cc1)C(=O)NC(C(=O)NCCCCCC(N)=O)C(C)CC.[Na+] (centres unmarked) [Compound A30] (Hexanoyl-[pY]-Ile-[Ahx]-NH2; configuration not given here)" unit_text=min measured_result=68.4
